biological target: unphosphorylated-BTK kinase domain (UP-BTK), GST-tagged human BTK (389-659aa) (Homo sapiens (Human), UniProt Q06187); assay: BTK kinase Lanthascreen binding assay; conditions: unphosphorylated-BTK kinase domain, 50 nM Tracer 236, 60 minutes; pIC50 = negative log of the IC50 in molar
Sequence (Q06187 389-659): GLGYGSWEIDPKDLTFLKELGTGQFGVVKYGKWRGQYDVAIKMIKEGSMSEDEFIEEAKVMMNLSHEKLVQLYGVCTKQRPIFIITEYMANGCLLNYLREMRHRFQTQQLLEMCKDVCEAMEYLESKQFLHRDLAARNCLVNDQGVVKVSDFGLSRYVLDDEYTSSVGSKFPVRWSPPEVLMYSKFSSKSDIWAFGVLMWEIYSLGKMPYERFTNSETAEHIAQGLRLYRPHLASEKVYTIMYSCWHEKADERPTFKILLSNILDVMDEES
The compounds listed here are annotated with their BTK_I_binding pIC50.

Below, each entry is followed by its recorded BTK_I_binding pIC50 result.
Cc1cc(Oc2ccccc2OC(C)C)ccc1N1C(=O)Nc2c(C(=O)N[C@@H]3CCCN(C)C3)sc3nccc1c23: 6.2
C=CC(=O)N1CCC[C@@H](NC(=O)c2sc3nccc4c3c2NC(=O)N4c2cncc(-c3ccccc3)c2)C1: 7.6
C=CC(=O)N1C[C@H](NC(=O)c2sc3nccc4c3c2NC(=O)N4c2ccc(Oc3ccccc3)cc2)[C@@H](OC)C1: 6.9
O=C(NCC1CCCO1)c1sc2nccc3c2c1NC(=O)N3c1ccc(Oc2ccccc2)cc1 (stereo not shown): 6.4
C=CC(=O)N1CCC[C@@H](NC(=O)c2sc3nccc4c3c2NC(=O)N4c2ccc(OC(F)(F)F)cc2C)C1: 7.4
Cc1ccc(N2C(=O)Nc3c(C(=O)N[C@@H]4CCCNC4)sc4nccc2c34)cc1Cl: 5.3

For "C=CC(=O)N1CCC[C@@H](NC(=O)c2sc3nccc4c3c2NC(=O)N4c2cc3ccccc3s2)C1" , what is its reported BTK_I_binding pIC50?
6.3

----------
Biological target: unphosphorylated-BTK kinase domain (UP-BTK), GST-tagged human BTK (389-659aa) (Homo sapiens (Human))
Assay: BTK kinase Lanthascreen binding assay
Details: pIC50 = negative log of the IC50 in molar; 60 minutes incubation, 50 nM Tracer 236
Method: BTK Kinase Lanthascreen Binding Assay: A BTK kinase lanthascreen binding assay monitors compound binding to unphosphorylated-BTK kinase domain (UP-BTK), by competing with a fluorescent labeled tracer. […] Data were analyzed using Xlfit™ version 5.3 from ID Business Solutions (Guildford), Microsoft Excel add-in. pIC50 refers to the negative log of the IC50 in molar
The compounds listed here are annotated with their BTK_I_binding pIC50.
API doc: respond with a numeric literal and nothing else, no unit.

Below, each entry is followed by its recorded BTK_I_binding pIC50 result.
COC=C(C#N)C(=O)N1CCC[C@@H](NC(=O)c2sc3nccc4c3c2NC(=O)N4c2ccc(Oc3ccccc3)cc2C)C1 (mixture of isomers) [Example 231]: 6.8
Cc1cc(Oc2ccccc2)ccc1N1C(=O)Nc2c(C(=O)NC3CCCN(C(=O)/C=C/CNC(=O)CCCC(=O)NCCCOCCOCCOCCCNC(=O)CCCC[C@H]4SC[C@@H]5NC(=O)N[C@@H]54)C3)sc3nccc1c23 (stereo partly drawn) [Example 237]: 6.9
Cc1cc(Oc2ccccc2)ccc1N1C(=O)Nc2c(C(=O)N[C@@H]3CCCN(C(=O)C4CCOCC4)C3)sc3nccc1c23 [Example 219]: 6.9
Cc1cc(Oc2ccccc2)ccc1N1C(=O)Nc2c(C(=O)N[C@@H]3CCOC3)sc3nccc1c23 (single isomer, unassigned) [Example 80]: 7.8
Cc1cc(Oc2ccccc2)ccc1N1C(=O)Nc2c(C(=O)NC3CCNC(=O)C3)sc3nccc1c23 (stereo not drawn) [Example 166]: 6.9

Okay, now this compound:
For Cc1cc(Oc2ccccc2)ccc1N1C(=O)Nc2c(C(=O)N[C@@H]3CCCN(C(=O)[C@H]4CCNC4)C3)sc3nccc1c23 [Example 131] , what is its reported BTK_I_binding pIC50?
7.5

Source of measurements: patent US10800792B2
